These data points were gathered from paper PMC10435995.

systemTested: hDHFR (dihydrofolate reductase) (Homo sapiens)
Construct: recombinant hDHFR (8456-DR-100; R&D Systems)
Sequence (P00374 1-187): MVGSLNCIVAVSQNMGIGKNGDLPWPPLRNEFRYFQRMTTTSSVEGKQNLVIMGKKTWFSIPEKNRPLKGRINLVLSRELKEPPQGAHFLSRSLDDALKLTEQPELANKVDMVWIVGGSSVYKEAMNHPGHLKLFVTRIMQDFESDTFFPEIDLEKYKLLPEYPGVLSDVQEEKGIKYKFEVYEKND
experimentDescription: ITC at […]°C without NADPH (also enzyme inhibition, CETSA, TPP)
conditionDescription: read-out: Average Kd (±s.d.)
property: Kd (nM)

> print(dat)
                             moleculesmiles  experimentalresult
1  Cc1nc(N)nc(N)c1/C=C/C1(c2ccc(C(F)(F)F)cc2)CC1                28.1
